- Test system: Hh-signalling cascade
- testDetails: Inhibition of SHh-induced alkaline phosphatase in C3H10T1/2 cells (Hh-signalling cascade inhibition)
- Format: cell-based
- testParameters: Mus musculus, C3H 10T1/2, half maximal inhibition of SHh (0.3 μg/ml) stimulation of cell alkaline phosphatase
parameter: IC50

[[record]]
compound = "O=C(Nc1ccc(-c2cn3ccccc3n2)cc1)c1ccc(Cl)cc1 [III-1005]"
parameter = "IC50"
assayresult = "< 5000 nM"

[[record]]
compound = "Cc1nn(-c2ccccc2)c2c1N(CC(=O)NCc1ccccn1)C(=O)CS2 [II-1003]"
parameter = "IC50"
assayresult = "< 5000 nM"

[[record]]
compound = "COCCCNC(=O)C1CCN(C(=O)c2cc3sccc3n2Cc2ccc(F)cc2)CC1 [V-1040]"
parameter = "IC50"
assayresult = "< 500 nM"

[[record]]
compound = "O=C(Nc1ccc(-c2cn3ccccc3n2)cc1)c1ccncc1 [III-1003]"
parameter = "IC50"
assayresult = "< 500 nM"

[[record]]
compound = "CC(=O)N1CCc2c(sc(NC(=O)Cc3ccccc3)c2-c2nc3ccccc3s2)C1 [VIII-1017]"
parameter = "IC50"
assayresult = "< 50000 nM"

[[record]]
compound = "Cc1ccc(NC(=O)C2CCN(C(=O)c3cc4sccc4n3Cc3ccc(F)cc3)CC2)cc1C [V-1035]"
parameter = "IC50"
assayresult = "< 500 nM"

[[record]]
compound = "O=C(NCC1CCCO1)C1CCN(C(=O)c2cc3sccc3n2Cc2ccc(Cl)cc2)CC1 (centres unmarked) [V-1046]"
parameter = "IC50"
assayresult = "< 5000 nM"

[[record]]
compound = "CC(=O)N1CCc2c(sc(NC(=O)C3CCCCC3)c2-c2nc3ccccc3s2)C1 [VIII-1016]"
parameter = "IC50"
assayresult = "< 5000 nM"

[[record]]
compound = "Cc1nn(-c2ccccc2)c2c1N(CC(=O)N1CCN(c3ccc(Cl)cc3)CC1)C(=O)CS2 [II-1012]"
parameter = "IC50"
assayresult = "< 500 nM"

[[record]]
compound = "CCn1c(C(=O)N2CCC(C(=O)N3CCN(c4ccccc4)CC3)CC2)cc2sccc21 [V-1008]"
parameter = "IC50"
assayresult = "< 50000 nM"

[[record]]
compound = "O=C(Nc1ccc(F)cc1)c1ccc2c(c1)CCCN2S(=O)(=O)c1ccccc1 [VII-1012]"
parameter = "IC50"
assayresult = "< 5000 nM"

[[record]]
compound = "Cc1ccc(S(=O)(=O)N2CCCc3cc(C(=O)Nc4c(C)cc(C)cc4C)ccc32)cc1 [VII-1001]"
parameter = "IC50"
assayresult = "< 500 nM"

[[record]]
compound = "Cc1nc(-c2ccccc2)sc1C(=O)Nc1cccc(-c2cn3ccccc3n2)c1 [III-1030]"
parameter = "IC50"
assayresult = "< 500 nM"

[[record]]
compound = "COc1ccc(CCNC(=O)CN2C(=O)CSc3c2c(C)nn3-c2ccccc2)cc1OC [II-1005]"
parameter = "IC50"
assayresult = "< 50000 nM"

[[record]]
compound = "O=C(c1cc2sccc2n1Cc1ccc(F)cc1)N1CCC(C(=O)N2CCOCC2)CC1 [V-1001]"
parameter = "IC50"
assayresult = "< 500 nM"

[[record]]
compound = "CN1CCN(C(=O)C2CCN(C(=O)c3cc4sccc4n3Cc3cccc(F)c3)CC2)CC1 [V-1050]"
parameter = "IC50"
assayresult = "< 500 nM"

[[record]]
compound = "Cc1cccc(N2CCN(C(=O)CN3C(=O)CSc4c3c(C)nn4-c3ccccc3)CC2C)c1 (centres unmarked) [II-1001]"
parameter = "IC50"
assayresult = "< 500 nM"


====

- testedOn: UniProt:Q99835
- Sequence (Q99835 28-787): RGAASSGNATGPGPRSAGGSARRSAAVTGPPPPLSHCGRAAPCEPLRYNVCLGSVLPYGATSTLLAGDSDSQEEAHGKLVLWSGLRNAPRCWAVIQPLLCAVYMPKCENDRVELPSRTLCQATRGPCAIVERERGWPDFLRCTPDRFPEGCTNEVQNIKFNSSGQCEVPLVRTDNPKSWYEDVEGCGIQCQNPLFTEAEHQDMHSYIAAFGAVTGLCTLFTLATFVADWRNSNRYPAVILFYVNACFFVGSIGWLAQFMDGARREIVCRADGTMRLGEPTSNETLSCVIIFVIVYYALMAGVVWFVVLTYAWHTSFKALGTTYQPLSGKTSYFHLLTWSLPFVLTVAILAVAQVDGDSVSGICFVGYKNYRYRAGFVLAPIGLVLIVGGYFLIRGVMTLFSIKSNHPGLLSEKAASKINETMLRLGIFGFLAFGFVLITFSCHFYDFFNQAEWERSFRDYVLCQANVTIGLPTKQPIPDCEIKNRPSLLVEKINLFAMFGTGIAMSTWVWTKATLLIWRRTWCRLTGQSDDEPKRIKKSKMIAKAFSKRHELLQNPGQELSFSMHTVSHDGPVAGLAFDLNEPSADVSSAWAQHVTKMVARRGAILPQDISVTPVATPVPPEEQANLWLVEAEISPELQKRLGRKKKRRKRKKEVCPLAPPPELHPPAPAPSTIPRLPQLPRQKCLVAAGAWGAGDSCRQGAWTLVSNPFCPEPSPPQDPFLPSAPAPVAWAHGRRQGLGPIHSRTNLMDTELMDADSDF
- testDetails: Displacement of bodipy-cyclopamine from Smo receptors in Smo-HEK cells
- testParameters: half-maximal displacement of bodipy-cyclopamine
Some molecules, each annotated with its measured IC50.
parameter: IC50 (nM)

[[record]]
structure = "Cc1cccn2cc(-c3ccc(NC(=O)c4ccccc4Br)cc3)nc12"
parameter = "IC50"
assayresult = 259

[[record]]
structure = "CN1CCN(C(=O)C2CCN(C(=O)c3cc4sccc4n3Cc3ccc(Cl)cc3)CC2)CC1"
parameter = "IC50"
assayresult = 40

[[record]]
structure = "Cc1cccn2cc(-c3ccc(NC(=O)c4ccccc4F)cc3)nc12"
parameter = "IC50"
assayresult = 93

[[record]]
structure = "O=C(c1cc2sccc2n1Cc1ccc(Cl)cc1)N1CCC(C(=O)N2CCCCCC2)CC1"
parameter = "IC50"
assayresult = 69


====

Some molecules, each annotated with its measured melting point.
parameter: melting point

[[record]]
molecule = "O=C(c1cc2sccc2n1Cc1ccc(F)cc1)N1CCC(C(=O)N2CCOCC2)CC1"
parameter = "melting point"
assayresult = "120 to 122 °C"

[[record]]
molecule = "CCOc1ccc(NC(=O)c2ccnc(N3CCC(C(=O)Nc4ccc(C(C)C)cc4)CC3)c2)cc1"
parameter = "melting point"
assayresult = "243 to 245 °C"

[[record]]
molecule = "Cc1nn(C(C)C(=O)N2CCN(Cc3ccccc3)CC2)c(=O)c2nn(-c3ccccc3)c(C)c12 (stereo not shown)"
parameter = "melting point"
assayresult = "152 to 154 °C"

[[record]]
molecule = "CCOc1ccc(NC(=O)c2ccnc(N3CCC(C(=O)Nc4ccccc4OC)CC3)c2)cc1"
parameter = "melting point"
assayresult = "182 to 184 °C"

[[record]]
molecule = "CCOc1ccc(NC(=O)c2ccnc(N3CCC(C(=O)Nc4cc(C)cc(C)c4)CC3)c2)cc1"
parameter = "melting point"
assayresult = "250 to 252 °C"

[[record]]
molecule = "Cc1nn(CC(=O)N2CCN(c3cccc(Cl)c3)CC2)c(=O)c2nn(-c3ccccc3)c(C)c12"
parameter = "melting point"
assayresult = "257 to 259 °C"

[[record]]
molecule = "Cc1cc(C)cc(NC(=O)C2CCN(C(=O)c3cc4sccc4n3Cc3ccc(F)cc3)CC2)c1"
parameter = "melting point"
assayresult = "203 to 205 °C"

[[record]]
molecule = "CCOc1ccc(NC(=O)c2ccnc(N3CCC(C(=O)Nc4ccc(C)c(C)c4)CC3)c2)cc1"
parameter = "melting point"
assayresult = "235 to 237 °C"

[[record]]
molecule = "Cc1nn(C(C)C(=O)N2CCN(C3CCCCC3)CC2)c(=O)c2nn(-c3ccccc3)c(C)c12 (stereo not shown)"
parameter = "melting point"
assayresult = "132 to 135 °C"

[[record]]
molecule = "Cc1ccc(C)c(N2CCN(C(=O)Cn3nc(C)c4c(C)n(-c5ccccc5)nc4c3=O)CC2)c1"
parameter = "melting point"
assayresult = "232 to 234 °C"

[[record]]
molecule = "CCOc1ccc(NC(=O)c2ccnc(N3CCC(C(=O)NCCCc4ccccc4)CC3)c2)cc1"
parameter = "melting point"
assayresult = "203 to 205 °C"

[[record]]
molecule = "Cc1nn(CC(=O)N2CCN(c3ccccc3F)CC2)c(=O)c2nn(-c3ccccc3)c(C)c12"
parameter = "melting point"
assayresult = "240 to 242 °C"

[[record]]
molecule = "Cc1ccc(S(=O)(=O)N2CCCc3cc(C(=O)Nc4c(C)cc(C)cc4C)ccc32)cc1"
parameter = "melting point"
assayresult = "252 to 255 °C"

[[record]]
molecule = "Cc1nn(C(C)C(=O)N2CCN(c3cccc(Cl)c3)CC2)c(=O)c2nn(-c3ccccc3)c(C)c12 (stereo not shown)"
parameter = "melting point"
assayresult = "194 to 196 °C"

[[record]]
molecule = "Cc1nn(CC(=O)N2CCN(c3ccc(F)cc3)CC2)c(=O)c2nn(-c3ccccc3)c(C)c12"
parameter = "melting point"
assayresult = "257 to 259 °C"

[[record]]
molecule = "Cc1nn(C(C)C(=O)N2CCN(c3ccccc3)CC2)c(=O)c2nn(-c3ccccc3)c(C)c12 (stereo not shown)"
parameter = "melting point"
assayresult = "193 to 195 °C"


====

- testDetails: Pharmacokinetic investigation in mice (PO and IP)
- Type: in vivo, mice of BALB/c line
- testParameters: BALB/c, mouse, plasma, PO, 20 mg/Kg
Some compounds, each annotated with its measured Cmax.
parameter: Cmax (ng/mL)

[[record]]
structure = "CN1CCN(C(=O)C2CCN(C(=O)c3cc4sccc4n3Cc3ccc(Cl)cc3)CC2)CC1"
parameter = "Cmax"
assayresult = 758

[[record]]
structure = "COc1cccc(N2CCN(C(=O)Cn3nc(C)c4c(C)n(-c5ccccc5)nc4c3=O)CC2)c1"
parameter = "Cmax"
assayresult = 4460


====

- Tested on: Hh-signalling cascade
- testDetails: Inhibition of SHh-induced alkaline phosphatase in C3H10T1/2 cells (Hh-signalling cascade inhibition)
- Format: cell-based
- testParameters: Mus musculus, C3H 10T1/2, half maximal inhibition of SHh (0.3 μg/ml) stimulation of cell alkaline phosphatase
parameter: IC50

[[record]]
compound = "Cc1ccc(-n2nc3c(=O)n(CCCC(=O)NCCc4ccco4)nc(C)c3c2C)cc1"
parameter = "IC50"
assayresult = "< 50 µM"

[[record]]
compound = "Cc1ccc(-n2nc3c(=O)n(C(C)C(=O)NCCc4cccs4)nc(C)c3c2C)cc1 (stereo not shown)"
parameter = "IC50"
assayresult = "< 5 µM"

[[record]]
compound = "Cc1nn(-c2ccccc2)c2c1N(CC(=O)NCCN1CCOCC1)C(=O)CS2"
parameter = "IC50"
assayresult = "> 50 µM"

[[record]]
compound = "Cc1nn(C(C)C(=O)N2CCN(c3cccc(Cl)c3)CC2)c(=O)c2nn(-c3ccccc3)c(C)c12 (stereo not shown)"
parameter = "IC50"
assayresult = "< 0.5 µM"

